# SYSTEM UNDER TEST: mAChR M4 (UniProt P08173)
# Construct: hM1 and hM4 cDNAs were purchased from Missouri S&T cDNA Resource
# EXPERIMENT NOTES: mAChR M4 cell-based functional assay (calcium mobilization, Fluo-4, FDSS)
# ASSAY CONTEXT: positive allosteric modulator activity, EC20 acetylcholine response, CHO-K1 cells
ATTRIBUTE MEASURED: pEC50
Number only, no unit.

Examples with answers:
SMILES RECORD	SYSTEM UNDER TEST	pEC50
Cc1ccc2c(n1)sc1c(NCc3ccco3)n[nH]c12	mAChR M4 (UniProt P08173)	5.30
Cc1cc(C)c2c(n1)sc1c(NCc3[nH]cnc3C)nn(C)c12	mAChR M4 (UniProt P08173)	6.37
Cc1cc(C)c2c(n1)sc1c(NC3CCSCC3)n[nH]c12	mAChR M4 (UniProt P08173)	5.36

Query pEC50 on mAChR M4 (UniProt P08173) for "Cc1cc(C)c2c(n1)sc1c(NC3CCN(C)CC3)nn(C)c12"
5.52

Follow-up item: "Cc1cc(C)c2c(n1)sc1c(NCc3cccs3)nn(C)c12"
7.07

Now consider "Cc1ccc2c(n1)sc1c(NCc3ccccc3)n[nH]c12" .
5.60

Moving on to "COc1ccc(CNc2n[nH]c3c2sc2nc(C)cc(C)c23)cc1"
5.94

Param item: "Cc1ccc(CNc2nn(C)c3c2sc2nc(C)cc(C)c23)c(C)c1"
5.60
